- ASSAY SYSTEM: UniProtKB P04626
- Sequence (P04626 23-1255, species assumed): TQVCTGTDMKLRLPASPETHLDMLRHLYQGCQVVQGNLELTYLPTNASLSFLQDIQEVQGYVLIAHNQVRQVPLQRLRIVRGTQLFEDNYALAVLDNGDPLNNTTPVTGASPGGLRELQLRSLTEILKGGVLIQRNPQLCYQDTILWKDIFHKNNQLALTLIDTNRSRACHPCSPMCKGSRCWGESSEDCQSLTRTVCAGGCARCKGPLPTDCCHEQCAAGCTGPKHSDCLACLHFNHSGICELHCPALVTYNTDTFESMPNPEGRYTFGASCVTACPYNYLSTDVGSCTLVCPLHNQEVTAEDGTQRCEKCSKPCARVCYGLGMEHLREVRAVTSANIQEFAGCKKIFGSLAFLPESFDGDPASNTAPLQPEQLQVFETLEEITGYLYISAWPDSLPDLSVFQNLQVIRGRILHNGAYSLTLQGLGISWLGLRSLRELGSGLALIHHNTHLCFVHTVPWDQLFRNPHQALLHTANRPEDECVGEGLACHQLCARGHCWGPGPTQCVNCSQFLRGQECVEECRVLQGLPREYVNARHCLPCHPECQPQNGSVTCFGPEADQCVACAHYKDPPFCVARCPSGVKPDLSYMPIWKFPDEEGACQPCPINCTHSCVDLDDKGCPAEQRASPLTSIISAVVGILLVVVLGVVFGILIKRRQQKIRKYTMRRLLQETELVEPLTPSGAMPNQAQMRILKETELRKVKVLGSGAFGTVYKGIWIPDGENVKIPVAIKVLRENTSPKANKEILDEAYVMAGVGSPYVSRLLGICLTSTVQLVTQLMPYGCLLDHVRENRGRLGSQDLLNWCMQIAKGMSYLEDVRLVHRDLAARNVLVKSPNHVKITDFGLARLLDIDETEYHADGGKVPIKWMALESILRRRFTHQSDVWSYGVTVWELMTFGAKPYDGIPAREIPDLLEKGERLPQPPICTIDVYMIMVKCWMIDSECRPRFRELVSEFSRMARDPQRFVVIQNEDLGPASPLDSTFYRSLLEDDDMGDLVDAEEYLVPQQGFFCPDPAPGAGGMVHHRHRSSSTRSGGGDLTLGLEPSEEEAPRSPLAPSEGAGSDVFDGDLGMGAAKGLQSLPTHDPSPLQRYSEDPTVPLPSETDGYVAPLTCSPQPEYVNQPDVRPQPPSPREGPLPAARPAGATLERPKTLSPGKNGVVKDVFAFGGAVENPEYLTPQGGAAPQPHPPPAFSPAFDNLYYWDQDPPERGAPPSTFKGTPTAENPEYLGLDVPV
- PROCEDURE DETAILS: Enzyme selectivity test (ELISA), ErbB2
- Assay type: biochemical
- Procedure: 1) Enzyme reaction substrate Poly(Glu, Tyr) 4:1 was diluted to 20 μg/mL with potassium-free PBS (10 mM sodium phosphate buffer, 150 mM NaCl, pH 7.2-7.4), and the microtiter plate was coated with 125 μL/well and placed at 37° C. for 12-16 hours of reaction. The liquid in the well was discard. […] 6) 2M H2SO4 was added at 50 μL/well to stop the reaction, and a tunable wavelength microplate reader VERSAmax was used for reading at a wavelength of 490 nm. […]
pIC50: −log10 of the molar value.
// values below are reported pIC50

- MOLECULE: "O=C(Nc1cccc(C(F)(F)F)c1)c1ccc(C2CC2)c(-c2ccc3nc(Nc4cnn(C5CC5)c4)ncc3c2)c1 [Compound S15]"
  pIC50: "< 6.00"

Item under review: CC(NC(=O)c1ccc(C2CC2)c(-c2ccc3nc(Nc4cnn(C5CC5)c4)ncc3c2)c1)c1cccc(C(F)(F)F)c1 (stereo not drawn) [Compound S16] . Reported pIC50?
< 6.00

Item under review: CCC(NC(=O)c1ccc(C2CC2)c(-c2ccc3nc(Nc4cnn(C5CC5)c4)ncc3c2)c1)c1cccc(C(F)(F)F)c1 (stereo not drawn) [Compound S18] . Reported pIC50?
< 6.00

---

- ASSAY SYSTEM: UniProt:Q16832
- Sequence (Q16832 563-849): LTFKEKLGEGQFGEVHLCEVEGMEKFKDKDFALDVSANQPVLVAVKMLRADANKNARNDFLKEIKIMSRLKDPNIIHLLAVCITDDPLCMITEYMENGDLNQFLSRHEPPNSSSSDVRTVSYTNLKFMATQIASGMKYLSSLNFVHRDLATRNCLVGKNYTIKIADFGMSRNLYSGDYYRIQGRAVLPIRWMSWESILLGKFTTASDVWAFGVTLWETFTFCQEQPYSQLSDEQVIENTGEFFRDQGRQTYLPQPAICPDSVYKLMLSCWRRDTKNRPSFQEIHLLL
- PROCEDURE DETAILS: DDR2 enzyme activity test (ELISA)
- Type: biochemical
- APPLIED CONDITIONS: read-out: DDR2 Inhibition rate at 0.1 μM
// values below are reported inhibition at 0.1 µM
Write the number in % without appending the unit.

- COMPOUND: "Cc1nc(C(C)NC(=O)c2ccc(C3CC3)c(-c3ccc4nc(Nc5cnn(C6CC6)c5)ncc4c3)c2)cs1 (stereo not shown) [Compound S44]"
  READOUT NUMBER: 72.9
- COMPOUND: "CC(NC(=O)c1ccc(C2CC2)c(-c2ccc3nc(Nc4cnn(C5CC5)c4)ncc3c2)c1)c1cc(C(F)(F)F)ccn1 (stereo not shown) [Compound S45]"
  READOUT NUMBER: 68.4
- COMPOUND: "CCN1CCN(Cc2cc(C(C)NC(=O)c3ccc(C4CC4)c(-c4ccc5nc(Nc6cnn(C7CC7)c6)ncc5c4)c3)cc(C(F)(F)F)c2)CC1 (stereo not shown) [Compound S43]"
  READOUT NUMBER: 57.6

Please find the next compound below.
Item under review: O=C(NC1CCc2c1cccc2C(F)(F)F)c1ccc(C2CC2)c(-c2ccc3nc(Nc4cnn(C5CC5)c4)ncc3c2)c1 (stereo not shown) [Compound S46] . Reported inhibition at 0.1 µM?
47.7

---

Reported IC50 values, UniProt P07949.
Sequence (P07949 29-1114, species assumed): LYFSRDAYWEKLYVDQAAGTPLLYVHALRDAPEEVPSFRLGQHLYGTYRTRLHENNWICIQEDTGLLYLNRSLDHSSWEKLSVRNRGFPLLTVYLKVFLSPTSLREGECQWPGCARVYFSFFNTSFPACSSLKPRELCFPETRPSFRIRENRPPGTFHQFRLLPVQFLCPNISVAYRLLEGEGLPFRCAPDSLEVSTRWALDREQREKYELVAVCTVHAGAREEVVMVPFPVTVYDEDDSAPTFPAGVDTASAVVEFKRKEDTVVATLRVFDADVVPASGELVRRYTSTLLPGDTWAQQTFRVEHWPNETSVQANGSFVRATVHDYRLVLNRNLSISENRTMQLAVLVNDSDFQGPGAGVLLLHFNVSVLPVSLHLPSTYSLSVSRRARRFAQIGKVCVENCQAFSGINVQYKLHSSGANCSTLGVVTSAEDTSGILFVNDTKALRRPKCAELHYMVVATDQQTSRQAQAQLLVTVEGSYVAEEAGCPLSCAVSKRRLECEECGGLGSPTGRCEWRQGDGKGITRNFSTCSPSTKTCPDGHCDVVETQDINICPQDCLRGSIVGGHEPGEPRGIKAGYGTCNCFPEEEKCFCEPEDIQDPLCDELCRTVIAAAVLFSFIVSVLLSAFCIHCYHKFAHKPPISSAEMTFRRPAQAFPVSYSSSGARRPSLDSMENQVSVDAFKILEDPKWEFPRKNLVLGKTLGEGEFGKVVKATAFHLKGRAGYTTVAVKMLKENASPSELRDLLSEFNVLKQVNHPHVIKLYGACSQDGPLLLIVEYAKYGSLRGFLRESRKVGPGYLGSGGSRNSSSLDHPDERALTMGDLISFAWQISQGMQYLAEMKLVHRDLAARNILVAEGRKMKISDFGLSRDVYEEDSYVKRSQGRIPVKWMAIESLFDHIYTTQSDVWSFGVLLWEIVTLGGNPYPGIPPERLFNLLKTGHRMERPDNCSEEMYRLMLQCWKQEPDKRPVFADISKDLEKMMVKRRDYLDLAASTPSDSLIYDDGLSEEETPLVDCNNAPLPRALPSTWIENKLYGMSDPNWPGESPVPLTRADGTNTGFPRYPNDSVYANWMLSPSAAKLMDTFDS

- COMPOUND: "CC(NC(=O)c1ccc(C2CC2)c(-c2ccc3nc(Nc4cnn(C5CC5)c4)ncc3c2)c1)c1cccc(C(F)(F)F)c1 (stereo not drawn)"
  MEASUREMENT TYPE: "IC50"
  RESULT: "> 1000 nM"
- COMPOUND: "O=C(Nc1cccc(C(F)(F)F)c1)c1ccc(C2CC2)c(-c2ccc3nc(Nc4cnn(C5CC5)c4)ncc3c2)c1"
  MEASUREMENT TYPE: "IC50"
  RESULT: "> 1000 nM"

Form: Entry = CCC(NC(=O)c1ccc(C2CC2)c(-c2ccc3nc(Nc4cnn(C5CC5)c4)ncc3c2)c1)c1cccc(C(F)(F)F)c1 (stereo not drawn) | System = UniProt P07949 | IC50 = ____
> 1000 nM

FYI, the data here is from patent US11655239B2.
